- system.name: Interleukin-1 receptor-associated kinase 4 (Homo sapiens)
- measurement.description: Inhibition of IRAK4 (unknown origin) at 10 uM
Rule: inhibition of 20% or more gives Met; anything lower gives Not met.

Sample answers from the record:
CN1CCN(c2ccc(Nc3ncc4cc(Oc5c(Cl)cccc5Cl)c(=O)n(C)c4n3)cc2)CC1 ... Not met
CN1CCN(c2ccc(Nc3ncc4cc(Oc5ccc(F)cc5F)c(=O)n(C)c4n3)cc2)CC1 ... Not met
Cn1c(=O)c(Oc2ccc(F)cc2F)cc2cnc(Nc3ccc(N4CCC(O)CC4)cc3)nc21 ... Met
Cn1c(=O)c(Oc2ccc(F)cc2F)cc2cnc(NC3CCN(S(C)(=O)=O)CC3)nc21 ... Not met

We now examine a further molecule.
Does `CN(C)CCNc1ncc2cc(Oc3ccc(F)cc3F)c(=O)n(C)c2n1` have a reported inhibition of at least 20%?
Not met

====

- system.name: Serine/threonine-protein kinase B-raf (Homo sapiens)
- measurement.description: Inhibition of B-RAF (unknown origin) at 10 uM
Rule: inhibition of 10% or more gives label 1; anything lower gives label 0.

CN1CCN(c2ccc(Nc3ncc4cc(Oc5c(Cl)cccc5Cl)c(=O)n(C)c4n3)cc2)CC1 ... label 1

Does `Cn1c(=O)c(Oc2ccc(F)cc2F)cc2cnc(NC3CCN(S(C)(=O)=O)CC3)nc21` have a reported inhibition of at least 10%?
label 1

Similarly, `Cn1c(=O)c(Oc2ccc(F)cc2F)cc2cnc(NCCc3ccccn3)nc21` ?
label 1

Similarly, `CN(C)CCNc1ncc2cc(Oc3ccc(F)cc3F)c(=O)n(C)c2n1` ?
label 0

Similarly, `Cn1c(=O)c(Oc2ccc(F)cc2F)cc2cnc(Nc3ccc(N4CCCCC4)cc3)nc21` ?
label 0

Similarly, `CN1CCN(c2ccc(Nc3ncc4cc(Oc5ccc(F)cc5F)c(=O)n(C)c4n3)cc2)CC1` ?
label 1

Similarly, `Cn1c(=O)c(Oc2ccc(F)cc2F)cc2cnc(Nc3ccc(N4CCC(O)CC4)cc3)nc21` ?
label 1

Similarly, `CN1CCN(CCCNc2ncc3cc(Oc4ccc(F)cc4F)c(=O)n(C)c3n2)CC1` ?
label 1

Similarly, `Cn1c(=O)c(Oc2c(Cl)cccc2Cl)cc2cnc(NC3CCOCC3)nc21` ?
label 0

====

- system.name: Mitogen-activated protein kinase 8 (Homo sapiens)
- measurement.description: Inhibition of JNK1 (unknown origin) expressed in HEK293 cells assessed as anisomycin-induced IRS-1(Ser307) phosphorylation at 10 uM incubated for 30 mins by Western blot analysis relative to anisomycin
- Type: cell-based
- Parameters: scale not given: the % may be the effect or the level left
The following molecules are listed with their measured Activity values.
Enter your answer as a number in %; do not include the unit.

Cn1c(=O)c(Oc2ccc(F)cc2F)cc2cnc(NCCN3CCOCC3)nc21 ... 26.7
Cn1c(=O)c(Oc2c(Cl)cccc2Cl)cc2cnc(NC3CCCC3)nc21 ... 8.18
Cn1c(=O)c(Oc2ccc(F)cc2F)cc2cnc(NCc3cccc(C(F)(F)F)c3)nc21 ... 0
Cn1c(=O)c(Oc2c(Cl)cccc2Cl)cc2cnc(Nc3ccc(N4CCCCC4)cc3)nc21 ... 46.3
Cn1c(=O)c(Oc2c(Cl)cccc2Cl)cc2cnc(N3CCCC(O)C3)nc21 (stereo not drawn) ... 93.6

I am curious: what Activity value has been reported for `Cn1c(=O)c(Oc2c(Cl)cccc2Cl)cc2cnc(Nc3ccc(N4CCC(O)CC4)cc3)nc21` ?
9.09

Similarly, `Cn1c(=O)c(Oc2ccc(F)cc2F)cc2cnc(NCc3ccccn3)nc21` ?
68.2

Similarly, `Cn1c(=O)c(Oc2c(Cl)cccc2Cl)cc2cnc(NCCc3ccccn3)nc21` ?
14.3

====

- system.name: Mitogen-activated protein kinase 8 (Homo sapiens, UniProt P45983)
- Sequence (P45983 whole entry): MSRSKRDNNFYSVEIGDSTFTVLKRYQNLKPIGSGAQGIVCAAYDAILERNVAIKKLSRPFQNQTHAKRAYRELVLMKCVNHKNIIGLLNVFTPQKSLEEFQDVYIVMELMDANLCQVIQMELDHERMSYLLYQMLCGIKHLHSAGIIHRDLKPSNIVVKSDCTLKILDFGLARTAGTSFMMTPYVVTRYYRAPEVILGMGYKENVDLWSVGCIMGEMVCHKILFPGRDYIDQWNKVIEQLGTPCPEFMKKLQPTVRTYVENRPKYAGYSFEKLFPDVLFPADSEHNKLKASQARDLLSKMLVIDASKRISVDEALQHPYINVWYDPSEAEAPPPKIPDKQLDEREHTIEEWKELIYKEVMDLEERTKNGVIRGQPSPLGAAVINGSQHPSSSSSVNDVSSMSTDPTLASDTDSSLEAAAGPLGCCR
- measurement.description: Inhibition of JNK1 (unknown origin) expressed in HEK293 cells assessed as anisomycin-induced c-Jun phosphorylation at 10 uM incubated for 30 mins by Western blot analysis relative to anisomycin
- Format: cell-based
- Parameters: scale not given: the % may be the effect or the level left
Please respond with Fulfilled when measured Activity is strictly beneath 90%, and with Not fulfilled in all other cases.

Sample answers from the record:
Cn1c(=O)c(Oc2ccc(F)cc2F)cc2cnc(N3CCCC(CO)C3)nc21 (configuration not stated) ... Not fulfilled
Cn1c(=O)c(Oc2c(Cl)cccc2Cl)cc2cnc(N3CCC(CO)CC3)nc21 ... Not fulfilled
CN1CCN(c2ccc(Nc3ncc4cc(Oc5ccc(F)cc5F)c(=O)n(C)c4n3)cc2)CC1 ... Fulfilled

Below 90% on Activity? Entry `Cn1c(=O)c(Oc2c(Cl)cccc2Cl)cc2cnc(NCCc3ccccn3)nc21`
Not fulfilled

Similarly, `Cn1c(=O)c(Oc2ccc(F)cc2F)cc2cnc(NCc3ccccn3)nc21` ?
Fulfilled

Similarly, `Cn1c(=O)c(Oc2c(Cl)cccc2Cl)cc2cnc(Nc3ccc(N4CCC(O)CC4)cc3)nc21` ?
Fulfilled

Similarly, `Cn1c(=O)c(Oc2ccc(F)cc2F)cc2cnc(NC3CCCCC3)nc21` ?
Fulfilled

====

- system.name: Mitogen-activated protein kinase 8 (Homo sapiens, UniProt P45983)
- measurement.description: Inhibition of JNK1 (unknown origin) expressed in HEK293 cells assessed as anisomycin-induced JNK phosphorylation at 10 uM incubated for 30 mins by Western blot analysis relative to anisomycin
- Assay type: cell-based
- Design: scale not given: the % may be the effect or the level left
The following molecules are listed with their measured Activity values.
Enter your answer as a number in %; do not include the unit.

As a guide, the following entries are already answered.
Cn1c(=O)c(Oc2ccc(F)cc2F)cc2cnc(NC3CCCC3)nc21 ... 40
Cn1c(=O)c(Oc2ccc(F)cc2F)cc2cnc(N3CCCC(O)C3)nc21 (stereo not drawn) ... 38.1
Cn1c(=O)c(Oc2ccc(F)cc2F)cc2cnc(NC3CC3)nc21 ... 174
Cn1c(=O)c(Oc2ccc(F)cc2F)cc2cnc(Nc3ccc(N4CCCCC4)cc3)nc21 ... 149
Cn1c(=O)c(Oc2ccc(F)cc2F)cc2cnc(N3CCCC(CO)C3)nc21 (stereo not drawn) ... 21.1
Cn1c(=O)c(Oc2ccc(F)cc2F)cc2cnc(NC3CCN(S(C)(=O)=O)CC3)nc21 ... 77.2
Cn1c(=O)c(Oc2c(Cl)cccc2Cl)cc2cnc(N3CCC(CO)CC3)nc21 ... 119
Cn1c(=O)c(Oc2ccc(F)cc2F)cc2cnc(NCc3cccc(C(F)(F)F)c3)nc21 ... 94.1
Cn1c(=O)c(Oc2c(Cl)cccc2Cl)cc2cnc(Nc3ccc(N4CCCCC4)cc3)nc21 ... 129
Cn1c(=O)c(Oc2ccc(F)cc2F)cc2cnc(N3CCC(O)C3)nc21 (stereo not drawn) ... 131

I am curious: what Activity value has been reported for `Cn1c(=O)c(Oc2c(Cl)cccc2Cl)cc2cnc(NCc3ccccn3)nc21` ?
35.3

Similarly, `Cn1c(=O)c(Oc2ccc(F)cc2F)cc2cnc(NCCCNS(C)(=O)=O)nc21` ?
52.9

Similarly, `Cn1c(=O)c(Oc2c(Cl)cccc2Cl)cc2cnc(NCCN3CCOCC3)nc21` ?
139

====

- system.name: Mitogen-activated protein kinase 8 (Homo sapiens, UniProt P45983)
- measurement.description: Inhibition of JNK1 (unknown origin) expressed in HEK293 cells assessed as anisomycin-induced IRS-1(Ser307) phosphorylation at 10 uM incubated for 30 mins by Western blot analysis relative to anisomycin
- Assay type: cell-based
- Set-up: scale not given: the % may be the effect or the level left
The following molecules are listed with their measured Activity values.
Enter your answer as a number in %; do not include the unit.

As a guide, the following entries are already answered.
Cn1c(=O)c(Oc2ccc(F)cc2F)cc2cnc(N3CCCC(CO)C3)nc21 (stereo not given) ... 79.4
Cn1c(=O)c(Oc2c(Cl)cccc2Cl)cc2cnc(NCc3ccccn3)nc21 ... 2.15

I am curious: what Activity value has been reported for Cn1c(=O)c(Oc2ccc(F)cc2F)cc2cnc(NC(CCO)CCO)nc21 [PAMAPIMOD] ?
14

Similarly, `CN1CCN(c2ccc(Nc3ncc4cc(Oc5ccc(F)cc5F)c(=O)n(C)c4n3)cc2)CC1` ?
2.08

Similarly, `CN1CCN(CCCNc2ncc3cc(Oc4ccc(F)cc4F)c(=O)n(C)c3n2)CC1` ?
0

Similarly, `CN1CCN(c2ccc(Nc3ncc4cc(Oc5c(Cl)cccc5Cl)c(=O)n(C)c4n3)cc2)CC1` ?
13.2

Similarly, `Cn1c(=O)c(Oc2ccc(F)cc2F)cc2cnc(Nc3ccc(N4CCCCC4)cc3)nc21` ?
84

Similarly, `O=C(O)c1ccccc1Nc1ccnc(Nc2cccc(F)c2)n1` ?
69

Similarly, `Cn1c(=O)c(Oc2c(Cl)cccc2Cl)cc2cnc(NC3CC3)nc21` ?
14.7

Similarly, `Cn1c(=O)c(Oc2c(Cl)cccc2Cl)cc2cnc(Nc3ccc(N4CCCC4)cc3)nc21` ?
165

Values compiled from ChEMBL document CHEMBL3745672.
